study_system: Cyclophilin A (Homo sapiens)
Construct: made in house
Sequence (P62937 whole entry, species assumed): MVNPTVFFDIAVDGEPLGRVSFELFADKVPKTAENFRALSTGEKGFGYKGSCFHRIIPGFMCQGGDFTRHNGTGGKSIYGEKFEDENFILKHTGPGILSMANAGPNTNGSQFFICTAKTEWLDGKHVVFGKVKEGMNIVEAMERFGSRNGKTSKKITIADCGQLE
assay_summary: AlphaLISA inhibition of binding of biotinylated Cyclosporin A to FLAG tagged Cyclophilin A
assay_conditions: read-out: IC50 value of CsA binding to Cyclophilin A
Where a SMILES comes first, the peptide text is derived from it. [ ]: non-standard residue; d: D form. MeBmt = C/C=C/C[C@@H](C)[C@@H](O)[C@H](NC)C(=O)O; NMeF = CN[C@@H](Cc1ccccc1)C(=O)O; NMeI = CC[C@H](C)[C@H](NC)C(=O)O; NMeL = CN[C@@H](CC(C)C)C(=O)O; Tle = CC(C)(C)[C@H](N)C(=O)O; NMeNva = CCC[C@H](NC)C(=O)O; NMeV = CN[C@H](C(=O)O)C(C)C; NMeA = CN[C@@H](C)C(=O)O; Abu = CC[C@H](N)C(=O)O; Sar = CNCC(=O)O
The following molecules are shown together with reported IC50 values.

// known answers, use as guide
| molecule | study_system | quantity_kind | value_measured |
| --- | --- | --- | --- |
| C/C=C/C[C@@H](C)[C@@H](O)[C@H]1C(=O)N[C@@H](CC)C(=O)N(C)CC(=O)N(C)[C@@H]([C@@H](C)CC)C(=O)N[C@@H](C(C)(C)C)C(=O)N(C)[C@@H](C)C(=O)N[C@@H](CC(C)C)C(=O)N[C@H](C)C(=O)N(C)[C@@H](CC(C)C)C(=O)N(C)[C@@H](CC(C)C)C(=O)N(C)[C@@H](C(C)C)C(=O)N1C [Compound C69] (cyclo([MeBmt][Abu][Sar][NMeI][Tle][NMeA]L[dA][NMeL][NMeL][NMeV])) | Cyclophilin A (Homo sapiens) | IC50 | < 2 µM |
| C/C=C/C[C@@H](C)[C@@H](O)[C@H]1C(=O)N[C@@H](CC)C(=O)N(C)CC(=O)N(C)[C@@H](C)C(=O)N[C@@H](C(C)C)C(=O)N(C)[C@@H](C)C(=O)N[C@@H](CC(C)C)C(=O)N[C@H](C)C(=O)N(C)[C@@H](CC(C)C)C(=O)N(C)[C@@H](CC(C)C)C(=O)N(C)[C@@H](C(C)C)C(=O)N1C [Compound C82] (cyclo([MeBmt][Abu][Sar][NMeA]V[NMeA]L[dA][NMeL][NMeL][NMeV])) | Cyclophilin A (Homo sapiens) | IC50 | < 2 µM |
| C/C=C/C[C@@H](C)[C@@H](O)[C@H]1C(=O)N[C@@H](CC)C(=O)N(C)CC(=O)N(C)[C@@H](Cc2ccccc2)C(=O)N[C@@H](C(C)C)C(=O)N(C)[C@@H](CC(C)C)C(=O)N[C@@H](CC)C(=O)N[C@H](C)C(=O)N(C)[C@@H](CC(C)C)C(=O)N(C)[C@@H](CC(C)C)C(=O)N(C)[C@@H](C(C)C)C(=O)N1C [Compound C96] (cyclo([Abu][Sar][NMeF]V[NMeL][Abu][dA][NMeL][NMeL][NMeV][MeBmt])) | Cyclophilin A (Homo sapiens) | IC50 | < 2 µM |

[in] Specify measured IC50 for C/C=C/C[C@@H](C)[C@@H](O)[C@H]1C(=O)N[C@@H](CC)C(=O)N(C)CC(=O)N(C)[C@@H](C(C)C)C(=O)N[C@@H](CC(C)C)C(=O)N(C)[C@@H](CC(C)C)C(=O)N[C@@H](CC(C)C)C(=O)N[C@H](C)C(=O)N(C)[C@@H](CC(C)C)C(=O)N(C)[C@@H](CC(C)C)C(=O)N(C)[C@@H](C(C)C)C(=O)N1C [Compound C65] (cyclo([MeBmt][Abu][Sar][NMeV]L[NMeL]L[dA][NMeL][NMeL][NMeV])) .
[out] < 2 µM

[in] Specify measured IC50 for C/C=C/C[C@@H](C)[C@@H](O)[C@H]1C(=O)N[C@@H](CC)C(=O)N(C)CC(=O)N(C)[C@@H](CCC)C(=O)N[C@@H](CC(C)C)C(=O)N(C)[C@@H](CC(C)C)C(=O)N[C@@H](CC(C)C)C(=O)N[C@H](C)C(=O)N(C)[C@@H](CC(C)C)C(=O)N(C)[C@@H](CC(C)C)C(=O)N(C)[C@@H](C(C)C)C(=O)N1C [Compound C66] (cyclo([MeBmt][Abu][Sar][NMeNva]L[NMeL]L[dA][NMeL][NMeL][NMeV])) .
[out] < 2 µM
